Below: a set of entries, each annotated with reported Kd.
# tested-on: T1, recombinant human CFD mutant 1 (R157A, R207A), His-tagged (human, UniProt P00746 26-253)
# T1 construct: positions are linear positions in the mature protein; also called rhCFD-mut1-His; Mut1
# protocol: SPR MX96
Phrase the answer as number then unit, nothing more needed.

*Q* Given the binder KCD015 (antibody, V domains shown) VH: EVQLQQSGAELVKPGASVKLSCTASGFNIKDTYMHWVKQRPEQGLEWIGRIDPANGYTEYDPKFQGKATITADTSSNTAYLQLSSLTSEDSAAYYCTSAMEFWGQGTSVTVSS VL: QIVLTQSPAILSASPGEKVTMTCSASSSVSYIYWYQQKPRSSPRLLIYDTSNLASGVPVRFSGSGSGTSYSLTISRMEAEDAATYYCQQWSSYPFTFGGGTKLEVK , what is its reported Kd?
*A* 3.7 nM

*Q* Given the binder KCD048 (antibody, V domains shown, chimeric) VH: EVQLQQSGADLVKPGASVKLSCTASGFNIKATYMHWVRQRPEKGLEWIGRIDPANGHTIYDPQFQGKATITSDTSSNTAYLQLNSLTSEDTAVYYCAEAMDYWGQGTSVTVSS VL: QIVLTQSPAIMSASPGEKVTLTCSATSSVSYMYWYQQKPGSSPRLLIYDTSNLASGVPVRFSGSGSGTSYSLTISRMEAEDDATYYCQQWSNYPFTFGGGTKLEIK , what is its reported Kd?
*A* 0.83 nM

*Q* Given the binder KCD038 (antibody, V domains shown) VH: EVQLQQSGPELVKPGTSMKISCKASGYSFADYTMNWVKQSHGKSLEWIGLINPYNGGTSYNQKFMGKATLTVDKSSSTAYMELLSLTSEDSAVYYCARWGTYSHNYDYAMDYWGQGTSVTVSS VL: DVVMTQTPLSLPVSLGDQASISCRSSQSLVHSNGNTYLYWYFQKPGQSPKFLIYKVSNRFSGISDRFSGSGSGTDFTLKISRVEAEDLGVYFCSQSTHVPPFTFGSGTKLEIK , what is its reported Kd?
*A* 84 nM
